System: Dd2
Test: qHTS profiling for inhibitors of Plasmodium falciparum proliferation (AID 504749); also: nearly all actives have a fitted effect of over 60% in size
Conditions: P. falciparum in erythrocytes, SYBR Green DNA, 72 h; series mostly up to 28.7 µM
Inconclusive results are not listed. Activity calls are given as the source filed them. Calls follow the shape of the dose curve; as a rule, active = well fitted inhibition curve with a large enough effect; inconclusive = small, poorly fitted or top-dose-only effect; inactive = flat fitted curve, though single readings scatter.
Thanks in advance; please answer with one of these: yes (active), no (inactive)

Below, 5 molecules whose answers are already recorded.
INSERT INTO measurements (molecule, assigned_class) VALUES
  ('CC(=O)NO', 'no'),
  ('CCCCCN=C(N)N/N=C/c1c[nH]c2ccc(OC)cc12', 'yes'),
  ('COc1cc(N)c(Cl)cc1C(=O)NC1CCN(Cc2ccccc2)CC1', 'no'),
  ('FC(F)(F)C(F)(F)C(F)(F)C(F)(F)C(F)(F)C(F)(F)C(F)(F)C(F)(F)Br', 'no'),
  ('O=C(O)CCC(=O)Nc1ccc(S(=O)(=O)Nc2nccs2)cc1', 'no');

Field: next molecule
Assay outcome for CCN1/C(=C/C=C/c2sc3ccccc3[n+]2CC)Sc2ccccc21 : what was it?
yes
